# ASSAY DETAILS: Mosmann's MTT cell viability (cytotoxicity) assay
# SETUP CONDITIONS: mouse

{"GIVEN SMILES": "CC[C@@H](CO)NCCN[C@@H](CC)CO", "viability at 48 h, 100 µg/mL (%)": 82}

====

Catalogue of viability at 48 h, 100 µg/mL readings, one per entry.
# ASSAY DETAILS: in vitro
# SETUP CONDITIONS: mouse

{"GIVEN SMILES": "Oc1ccc(C=NNc2ccnc3cc(Cl)ccc23)cc1O", "viability at 48 h, 100 µg/mL [%]": 72}
{"GIVEN SMILES": "Oc1ccc(O)c(/C=N/Nc2ccnc3cc(Cl)ccc23)c1", "viability at 48 h, 100 µg/mL [%]": 70}
{"GIVEN SMILES": "COc1cc(/C=N/Nc2ccnc3cc(Cl)ccc23)cc(OC)c1OC", "viability at 48 h, 100 µg/mL [%]": 69}
